B1: OR3A1 (parent)
chain: PMYFFLGNLSVLDVGCISVTVPSM

Variants of: B1
assayRemarks: protein stability index of a GFP-peptide fusion (GPS, HEK-293T) (PSI 1-6); higher = more stable;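 note: lentivirally expressed fusions sorted by FACS into six bins by GFP to DsRed ratio, PSI derived from sequencing read proportions per bin multiplied by bin number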
reportedConditions: c terminus: a fixed tail appended
Entry flag: YES if protein stability index reaches 3; NO if it does not.

Tell me whether protein stability index is at least 3 here: L6D
NO

Tell me whether protein stability index is at least 3 here: V11F
YES

Tell me whether protein stability index is at least 3 here: L12N
NO

Tell me whether protein stability index is at least 3 here: G15H
YES

Tell me whether protein stability index is at least 3 here: V14R
NO

Tell me whether protein stability index is at least 3 here: V14M
YES

Tell me whether protein stability index is at least 3 here: C16H
NO

Tell me whether protein stability index is at least 3 here: L6E
NO

Tell me whether protein stability index is at least 3 here: D13F
YES

Tell me whether protein stability index is at least 3 here: P1Q
YES

Tell me whether protein stability index is at least 3 here: T20V
YES

Tell me whether protein stability index is at least 3 here: I17R
YES

Tell me whether protein stability index is at least 3 here: S10Q
NO

Tell me whether protein stability index is at least 3 here: Y3C
YES

Tell me whether protein stability index is at least 3 here: T20Y
YES

Tell me whether protein stability index is at least 3 here: N8P
NO

Tell me whether protein stability index is at least 3 here: D13V
NO

Tell me whether protein stability index is at least 3 here: V11R
YES

Tell me whether protein stability index is at least 3 here: G15A
NO

Tell me whether protein stability index is at least 3 here: M2E
NO

Tell me whether protein stability index is at least 3 here: M24T
NO

Tell me whether protein stability index is at least 3 here: S23W
NO

Tell me whether protein stability index is at least 3 here: V19F
YES

Tell me whether protein stability index is at least 3 here: M24L
NO

Tell me whether protein stability index is at least 3 here: L9A
NO

Tell me whether protein stability index is at least 3 here: C16R
YES

Tell me whether protein stability index is at least 3 here: L12I
YES

Tell me whether protein stability index is at least 3 here: L6M
NO

Tell me whether protein stability index is at least 3 here: P22T
NO

Tell me whether protein stability index is at least 3 here: S10R
NO

Tell me whether protein stability index is at least 3 here: L9T
NO

Tell me whether protein stability index is at least 3 here: M24C
NO

Tell me whether protein stability index is at least 3 here: V11T
NO

Tell me whether protein stability index is at least 3 here: L6T
NO

Tell me whether protein stability index is at least 3 here: P1I
NO

Tell me whether protein stability index is at least 3 here: V21Q
NO

Tell me whether protein stability index is at least 3 here: V11D
YES

Tell me whether protein stability index is at least 3 here: V14Q
NO

Tell me whether protein stability index is at least 3 here: M24D
YES

Tell me whether protein stability index is at least 3 here: P22D
NO

Tell me whether protein stability index is at least 3 here: V19D
YES

Tell me whether protein stability index is at least 3 here: V21W
NO
